measured_on: DYRK1A (Homo sapiens, UniProt Q13627)
procedure_text: Cellular DYRK1 autophosphorylation assay in U2-OS cells
Format: cell-based
Parameters: full-length, wild-type human DYRK1A (NM_001396) with an HA tag; expressed in transfected cells; host or cells: human U2-OS osteosarcoma cells, transient transfection of a pcDNA3.1 plasmid
measurement_conditions: U2-OS cells transfected with HA-tagged human DYRK1A, 5 hours exposure; read-out: IC50 (μM) P-Ser520-Dyrk1A -Cell assay
property_name: IC50 (µM)
Give bare numbers, in µM.

Some entries whose results are on file:
>>> df
                                   compound  property_name  reported_result
0  Cc1nc2ccc(-c3cc(N)nc(N)c3)nc2n1CCOc1cccc(Cl)c1           IC50            0.069
1  Cc1ccccc1O[C@H](C)Cn1c(C)nc2ccc(-c3cc(N)nc(N)c3)nc21 (single isomer, unassigned)           IC50            0.207

Okay, next one:
Return IC50 measured with DYRK1A (Homo sapiens, UniProt Q13627) given this compound: Cc1nc2ccc(-c3cc(N)nc(N)c3)nc2n1C[C@@H](C)Oc1ccccn1 (single isomer, unassigned)
0.131

* * *

Answer each item with its documented IC50.
measured_on: CDK9 (Homo sapiens, UniProt P50750)
Construct: full-length human kinases from Carna Biosciences; purchased Carna Biosciences 04-110
Sequence (P50750 whole entry): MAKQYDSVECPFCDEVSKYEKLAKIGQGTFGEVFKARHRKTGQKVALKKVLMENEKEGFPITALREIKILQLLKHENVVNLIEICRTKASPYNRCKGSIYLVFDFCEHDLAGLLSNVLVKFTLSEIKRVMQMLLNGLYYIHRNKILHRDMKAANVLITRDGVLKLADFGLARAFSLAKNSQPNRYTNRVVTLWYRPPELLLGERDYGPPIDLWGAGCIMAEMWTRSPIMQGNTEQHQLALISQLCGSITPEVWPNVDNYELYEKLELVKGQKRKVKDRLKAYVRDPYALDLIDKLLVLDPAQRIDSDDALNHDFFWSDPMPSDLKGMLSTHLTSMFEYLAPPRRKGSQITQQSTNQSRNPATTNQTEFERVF
Sequence (O60563 whole entry partner): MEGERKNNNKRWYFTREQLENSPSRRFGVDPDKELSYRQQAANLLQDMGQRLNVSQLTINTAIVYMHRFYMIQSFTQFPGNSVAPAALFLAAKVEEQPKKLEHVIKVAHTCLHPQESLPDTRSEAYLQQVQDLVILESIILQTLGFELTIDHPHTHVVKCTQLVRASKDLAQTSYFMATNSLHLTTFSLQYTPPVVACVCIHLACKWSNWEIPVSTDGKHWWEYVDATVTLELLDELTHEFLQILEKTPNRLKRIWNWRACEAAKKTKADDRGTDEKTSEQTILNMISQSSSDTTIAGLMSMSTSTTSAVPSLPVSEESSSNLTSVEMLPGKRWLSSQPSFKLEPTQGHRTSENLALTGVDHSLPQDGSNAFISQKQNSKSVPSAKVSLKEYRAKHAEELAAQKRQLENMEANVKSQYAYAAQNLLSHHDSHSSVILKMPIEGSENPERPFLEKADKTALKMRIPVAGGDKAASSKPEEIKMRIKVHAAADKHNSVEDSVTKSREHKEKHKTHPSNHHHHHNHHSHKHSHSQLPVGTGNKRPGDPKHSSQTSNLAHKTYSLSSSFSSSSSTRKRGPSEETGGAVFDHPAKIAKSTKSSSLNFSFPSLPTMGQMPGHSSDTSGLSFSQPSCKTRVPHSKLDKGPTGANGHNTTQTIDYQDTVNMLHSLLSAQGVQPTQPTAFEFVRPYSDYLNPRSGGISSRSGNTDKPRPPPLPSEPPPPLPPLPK
procedure_text: Kinase TR-FRET assay, CDK9
Assay type: biochemical
measurement_conditions: full-length human kinase, 10 μM ATP

In [3]: df
Out[3]:
                                   compound  property_name  reported_result
0  Cc1ccccc1CCn1c(C)nc2ccc(-c3cc(N)nc(N)c3)nc21           IC50          > 10 µM
1   Cc1nc2ccc(-c3cc(N)nc(N)c3)nc2n1CC1CCCC1           IC50          1.46 µM
2    CCCCn1c(CC)nc2ccc(-c3cc(N)nc(N)c3)nc21           IC50          > 10 µM
3  Cc1nc2ccc(-c3cc(N)nc(N)c3)nc2n1C[C@H]1C[C@@H]1c1ccccc1 (single isomer, unassigned)           IC50           > 3 µM

Name the reported IC50 value associated with the compound N#Cc1nc2ccc(-c3cc(N)nc(N)c3)nc2n1CCOc1ccccc1
> 3 µM

* * *

measured_on: UniProt Q13627
procedure_text: Cellular DYRK1 autophosphorylation assay in U2-OS cells
Assay type: cell-based
Parameters: full-length, wild-type human DYRK1A (NM_001396) with an HA tag; expressed in transfected cells; host or cells: human U2-OS osteosarcoma cells, transient transfection of a pcDNA3.1 plasmid
measurement_conditions: U2-OS cells transfected with HA-tagged human DYRK1A, 5 hours exposure; read-out: IC50 (μM) P-Ser520-Dyrk1A -Cell assay
property_name: log10(IC50) (log10 of the value in µM)
Note: values are log10 of IC50 expressed in µM.

In [3]: df
Out[3]:
                                   compound  reported_result
0    CCCCCn1c(C)nc2ccc(-c3cc(N)nc(N)c3)nc21            -1.66
1       CCn1c(C)nc2ccc(-c3cc(N)nc(N)c3)nc21            -1.70
2     CCCCn1c(C)nc2ccc(-c3cc(N)nc(N)c3)nc21            -1.00
3  Cc1cccc(O[C@H](C)Cn2c(C)nc3ccc(-c4cc(N)nc(N)c4)nc32)c1 (single isomer, unassigned)            -0.79
4  Cc1nc2ccc(-c3cc(N)nc(N)c3)nc2n1CCOc1cccc(CF)n1            -1.04
5      Cn1c(C#N)nc2ccc(-c3cc(N)nc(N)c3)nc21            -0.58

Batch request: log10(IC50) per item, same order as input.
1. Cc1ccccc1CCn1c(C)nc2ccc(-c3cc(N)nc(N)c3)nc21
2. Cc1nc2ccc(-c3cc(N)nc(N)c3)nc2n1C1CC(F)C1 (centres unmarked)
3. Cc1nc2ccc(-c3cc(N)nc(N)c3)nc2n1CC1CC1(Cl)Cl (centres unmarked)
4. Cc1nc2ccc(-c3cc(N)nc(N)c3)nc2n1CCc1ccc(Cl)c(Cl)c1
5. Cc1nc2ccc(-c3cc(N)nc(N)c3)nc2n1C[C@@H](C)Oc1cccc(Cl)n1 (single isomer, unassigned)
6. Cc1nc2ccc(-c3cc(N)nc(N)c3)nc2n1C[C@H](C)Oc1cccc(F)c1 (single isomer, unassigned)

-1.62
-1.85
-1.04
-1.10
-1.38
-1.09

Batch request: log10(IC50) per item, same order as input.
1. CC[C@@H](Cn1c(C)nc2ccc(-c3cc(N)nc(N)c3)nc21)Oc1ccccc1 (single isomer, unassigned)
2. Cc1nc2ccc(-c3cc(N)nc(N)c3)nc2n1[C@H]1C[C@@H]1Cc1ccccc1 (single isomer, unassigned)
3. Cc1nc2ccc(-c3cc(N)nc(N)c3)nc2n1C[C@H](C)Oc1cccc(Cl)n1 (single isomer, unassigned)

1. -0.98
2. -1.00
3. -0.65

Batch request: log10(IC50) per item, same order as input.
1. Cc1nc2ccc(-c3cc(N)nc(N)c3)nc2n1CCCOc1ccccc1
2. Cc1nc2ccc(-c3cc(N)nc(N)c3)nc2n1C[C@@H]1C[C@H]1c1ccccc1 (single isomer, unassigned)
3. Cc1nc2ccc(-c3cc(N)nc(N)c3)nc2n1CCOc1cccc(Br)n1
4. Cc1nc2ccc(-c3cc(N)nc(N)c3)nc2n1CCOc1cccc(Cl)n1
5. CCCCn1c(CCC)nc2ccc(-c3cc(N)nc(N)c3)nc21
6. Nc1cc(-c2ccc3nc(Cl)n(C4CCCC4)c3n2)cc(N)n1
7. Cc1nc2ccc(-c3cc(N)nc(N)c3)nc2n1C1CCSCC1

-1.43
-1.38
-1.49
-1.59
-0.84
-1.12
-1.14

Name the reported log10(IC50) value associated with the compound Cc1nc2ccc(-c3cc(N)nc(N)c3)nc2n1C[C@@H](C)Oc1ccccc1F (single isomer, unassigned)
-0.69
